Hey, just so you know, these numbers are from ChEMBL document CHEMBL3797168.

biological target: Delta-type opioid receptor (Homo sapiens)
Sequence (P41143 whole entry): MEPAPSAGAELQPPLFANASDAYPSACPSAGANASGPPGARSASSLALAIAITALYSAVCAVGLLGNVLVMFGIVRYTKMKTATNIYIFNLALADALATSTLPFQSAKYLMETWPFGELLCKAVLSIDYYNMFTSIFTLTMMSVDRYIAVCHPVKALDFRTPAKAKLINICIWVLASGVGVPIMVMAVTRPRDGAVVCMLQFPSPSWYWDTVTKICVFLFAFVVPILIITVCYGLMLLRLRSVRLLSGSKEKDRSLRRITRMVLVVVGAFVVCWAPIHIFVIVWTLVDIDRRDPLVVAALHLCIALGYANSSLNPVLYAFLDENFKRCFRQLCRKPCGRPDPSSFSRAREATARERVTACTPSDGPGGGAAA
parameter: Ki (µM)
Output spec: scalar in µM, unitless text.

*Q* // fetch Delta-type opioid receptor (Homo sapiens) Ki for CNC(=O)[C@@]12C[C@@H]1[C@@H](n1cnc3c(C)nc(C#Cc4ccc(Cl)s4)nc31)[C@H](O)[C@@H]2O
*A* 5.8

---

Molecular target: Adenosine receptor A3 (Mus musculus)
Sequence (Q61618 whole entry): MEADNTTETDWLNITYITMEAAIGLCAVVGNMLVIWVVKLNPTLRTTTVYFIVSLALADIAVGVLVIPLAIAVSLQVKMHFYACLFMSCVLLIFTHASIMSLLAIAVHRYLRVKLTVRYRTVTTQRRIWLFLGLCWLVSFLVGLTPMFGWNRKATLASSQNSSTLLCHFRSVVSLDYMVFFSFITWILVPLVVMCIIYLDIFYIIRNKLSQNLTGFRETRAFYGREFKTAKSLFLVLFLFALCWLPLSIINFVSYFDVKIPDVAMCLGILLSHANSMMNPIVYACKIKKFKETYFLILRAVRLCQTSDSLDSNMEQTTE
parameter: Ki (nM)
Reply with just the number (in nM).

*Q* Field request: Ki | item: CNC(=O)[C@@]12C[C@@H]1[C@@H](n1cnc3c(/C=C(\O)c4ccccc4)nc(C#Cc4ccccc4)nc31)[C@H](O)[C@@H]2O
*A* 136
